Taken from BigSolDB 2.1.

- settings: in acetone, 313.15 K
readout label: solubility (mole fraction)
Number only, please.

Quick one: solubility (mole fraction) for CSCC1CN(/N=C/c2ccc([N+](=O)[O-])o2)C(=O)O1 (stereo unspecified) ?
0.00281

---

- settings: in ethanol, 323.15 K
readout label: solubility (mole fraction)

For the compound shown here, CSCC1CN(/N=C/c2ccc([N+](=O)[O-])o2)C(=O)O1 (stereo unspecified) , give the reported solubility (mole fraction).
0.000111

---

- settings: in ethyl acetate, 318.15 K
readout label: solubility (mole fraction)
// no unit string in output, number only

So what does the record say about solubility (mole fraction) for CSCC1CN(/N=C/c2ccc([N+](=O)[O-])o2)C(=O)O1 (stereo unspecified) ?
0.000832
